This section presents molecules with their documented viability values.
- System: SB.msgc-1
- EXPERIMENT: viability at highest tested concentration (MAXR) relative to DMSO; higher = less cytotoxic
- TEST CONDITIONS: SB.msgc-1 (sporadic gastric cancer)
All answers are understood in %, so give the number only.

Solved entries:
- MOLECULE: "Cc1cccc(Nc2ccncc2[S+](=O)([O-])NC(=O)NC(C)C)c1 [Torasemide] (top concentration 46.0829 µM)"
  TARGET UNDER TEST: "SB.msgc-1"
  READOUT UNIT: "%"
  viability: 93
- MOLECULE: "Cc1c(NC(=O)OC[C@@H]2COCCN2)cn2ncnc(Nc3ccc4c(cnn4Cc4cccc(F)c4)c3)c12 [AC-480] (top concentration 46.0829 µM)"
  TARGET UNDER TEST: "SB.msgc-1"
  READOUT UNIT: "%"
  viability: 18.6
- MOLECULE: "Oc1ccc2ccccc2c1SSc1c(O)ccc2ccccc12 [IPA-3] (top concentration 46.0829 µM)"
  TARGET UNDER TEST: "SB.msgc-1"
  READOUT UNIT: "%"
  viability: 76.2

Attention now shifts to the item below.
Request: Look up viability: COc1ccc(/C=C/C(=O)Nc2ccccc2C(=O)O)cc1OC [Tranilast] (top concentration 46.0829 µM)
Result: 88.9

====

// reported area under the dose-response curve for each item listed
- System: SB.mhdgc-1
- EXPERIMENT: area under the dose-response curve of % viability (trapezoidal, 11 doses) (% viability x log10 concentration); higher = less cytotoxic
- TEST CONDITIONS: SB.mhdgc-1 (hereditary c.1380delA CDH1 gastric cancer)
Structures can show the parent of a compound that is named as a salt.
Provide a numeric answer; units are not to be included.

- COMPOUND: "CN(C[C@@H]1COCCO1)[S+]([O-])(=O)NC2=CC3=C(C=C2)\\C=C/C4=C(C=C(C=N4)C5=C[N](C)N=C5)C3=O [MK-2461] (top concentration 46.0829 µM)"
  TARGET UNDER TEST: "SB.mhdgc-1"
  RECORDED VALUE: 564
- COMPOUND: "O=C(NNC(=O)c1ccc(CN[S+](=O)([O-])c2ccc(F)c(Cl)c2)cc1)c1ccccc1 [TCN-201] (top concentration 46.0829 µM)"
  TARGET UNDER TEST: "SB.mhdgc-1"
  RECORDED VALUE: 554
- COMPOUND: "CN(C/C=C/C#CC(C)(C)C)Cc1cccc2ccccc12 [Terbinafine hydrochloride] (top concentration 46.0829 µM)"
  TARGET UNDER TEST: "SB.mhdgc-1"
  RECORDED VALUE: 496
- COMPOUND: "OC[C@H]1OCC(O1)[N@@]2C=CC(N)=NC2=O (stereo partly specified) [Troxacitabine] (top concentration 46.0829 µM)"
  TARGET UNDER TEST: "SB.mhdgc-1"
  RECORDED VALUE: 538
- COMPOUND: "CCOCC(O)COc1ccc(NC(=O)CC[S+](C)C)cc1 (stereo unspecified) [Suplatast tosilate] (top concentration 46.0829 µM)"
  TARGET UNDER TEST: "SB.mhdgc-1"
  RECORDED VALUE: 433

Request: Would you mind telling me what area under the dose-response curve value was observed for COc1ccc(-c2c(-c3ccc(O)cc3O)n[nH]c2C)cc1 [PDHK RIKEN] (top concentration 92.1659 µM) ?
Result: 560

====

- Test system: SB.msgc-1
- EXPERIMENT: area under the dose-response curve of % viability (trapezoidal, 11 doses) (% viability x log10 concentration); higher = less cytotoxic
- TEST CONDITIONS: SB.msgc-1 (sporadic gastric cancer)
Short version: area under the dose-response curve at least 500 is Fulfilled, less is Not fulfilled.

Study these solved cases before continuing.
- MOLECULE: "O=C1c2c(O)ccc(O)c2C(=O)c2c(NCCNCCO)ccc(NCCNCCO)c21 [Mitoxantrone] (top concentration 46.0829 µM)"
  DISCRETE LABEL: "Not fulfilled"
- MOLECULE: "NC/1=N/C2=C([NH]C=N2)C(=S)N1 [Tioguanine] (top concentration 46.0829 µM)"
  DISCRETE LABEL: "Not fulfilled"
- MOLECULE: "CN(Cc1cnc2nc(N)nc(N)c2n1)c1ccc(C(=O)N[C@@H](CCC(=O)O)C(=O)O)cc1 [Methotrexate] (top concentration 46.0829 µM)"
  DISCRETE LABEL: "Not fulfilled"
- MOLECULE: "O=C(O[C@H]1C[C@H]2CC[C@@H](C1)[N+]21CCCC1)C(O)(c1ccccc1)c1ccccc1.[Cl-] [Trospium chloride] (top concentration 46.0829 µM)"
  DISCRETE LABEL: "Fulfilled"
- MOLECULE: "CCOC(=O)[C@H](CCc1ccccc1)N[C@@H](C)C(=O)N1[C@H](C(=O)O)C[C@@H]2CCC[C@@H]21 [Ramipril] (top concentration 46.0829 µM)"
  DISCRETE LABEL: "Fulfilled"

Request: Quick check, area under the dose-response curve >= 500? C[Se]CC[C@H](N)C(=O)O [L-selenomethionine] (top concentration 92.1659 µM)
Result: Not fulfilled

Request: Does area under the dose-response curve meet or surpass 500 for O=C(NCCO[N+](=O)[O-])c1cccnc1 [Nicorandil] (top concentration 46.0829 µM) ?
Result: Fulfilled

Request: Tell me whether area under the dose-response curve is at least 500 here: CC(=O)OC[C@@H]1O[C@H]([C@H](OC(C)=O)[C@@H]1OC(C)=O)N2\C=C/C(=O)NC2=O [Uridine triacetate] (top concentration 46.0829 µM)
Result: Fulfilled

====

- Test system: SB.msgc-1
- EXPERIMENT: AC50 for growth inhibition (viability) (log10 M); higher = less potent
- TEST CONDITIONS: SB.msgc-1 (sporadic gastric cancer)
# AC50 for growth inhibition (log10 M) values compiled below
Field format: numeric only.

Worked cases, answers included:
- COMPOUND: "CN1CCCN(C(=O)c2cccc(-c3ccc(/C=C4/C(=O)Nc5ccc(Cl)cc54)o3)c2)CC1"
  TARGET UNDER TEST: "SB.msgc-1"
  MEASURE NAME: "AC50 for growth inhibition (log10 M)"
  RECORDED VALUE: -4.73
- COMPOUND: "Cc1cn[nH]c1 [Fomepizole]"
  TARGET UNDER TEST: "SB.msgc-1"
  MEASURE NAME: "AC50 for growth inhibition (log10 M)"
  RECORDED VALUE: -7.18
- COMPOUND: "CN(CCOc1ccc(CC2SC(=O)NC2=O)cc1)c1ccccn1 (stereo not drawn)"
  TARGET UNDER TEST: "SB.msgc-1"
  MEASURE NAME: "AC50 for growth inhibition (log10 M)"
  RECORDED VALUE: -5.18
- COMPOUND: "Cc1ccc(C)c(OCCCC(C)(C)C(=O)O)c1"
  TARGET UNDER TEST: "SB.msgc-1"
  MEASURE NAME: "AC50 for growth inhibition (log10 M)"
  RECORDED VALUE: -5.13
- COMPOUND: "CC1(COc2ccc3c(c2)ncn3-c2ccc3cccc(N4CCC(N)CC4)c3n2)COC1"
  TARGET UNDER TEST: "SB.msgc-1"
  MEASURE NAME: "AC50 for growth inhibition (log10 M)"
  RECORDED VALUE: -7.38
- COMPOUND: "NC1=C(Cl)C(=CC=N1)OC2=C(F)C=C(NC(=O)\\C3=C\\N\\C=C(C3=O)\\C4=CC=C(F)C=C4)C=C2"
  TARGET UNDER TEST: "SB.msgc-1"
  MEASURE NAME: "AC50 for growth inhibition (log10 M)"
  RECORDED VALUE: -4.73

Request: Which measured AC50 for growth inhibition (log10 M) belongs to N=C1S/C(=C\c2ccc(-c3ccc4c(c3)C(=O)NC4=O)o2)C(=O)N1c1ccc(Br)cc1 , tested on SB.msgc-1?
Result: -5.43

Request: Form field - read-out: AC50 for growth inhibition (log10 M); system: SB.msgc-1; submitted item: CCC(=C/[C@H](C)C/C=C/C(C)=C/[C@@H](C)C(=O)[C@@H](C)[C@H](O)[C@@H](C)C/C(C)=C/C(=O)O)/C=C/[C@@H]1OC(=O)C=C[C@@H]1C
Result: -7.06

====

- Tested on: SB.mhdgc-1
- EXPERIMENT: area under the dose-response curve of % viability (trapezoidal, 11 doses) (% viability x log10 concentration); higher = less cytotoxic
- TEST CONDITIONS: SB.mhdgc-1 (hereditary c.1380delA CDH1 gastric cancer)
Structures can show the parent of a compound that is named as a salt.
Record yes whenever area under the dose-response curve is at 400 or higher; record no when lower.

- COMPOUND: "CC(=O)C\\1=C(/C)C2=CN=C(NC3=CC=C(C=N3)N4CCNCC4)N=C2N(C5CCCC5)C1=O (top concentration 46.0829 µM)"
  TARGET UNDER TEST: "SB.mhdgc-1"
  DISCRETE LABEL: "yes"

Request: Textbook exercise: given the entry CC(C)(O)c1cc2nc(-c3cnc(N)nc3)nc(N3CCOCC3)c2s1 [GNE-493] (top concentration 46.0829 µM) , state whether its area under the dose-response curve is greater than or equal to 400.
Result: no

Request: Evaluate Cc1csc(NC(=O)c2sc3nc4c(c(C(F)(F)F)c3c2N)CCC4)n1 [Irestatin 9389] (top concentration 46.0829 µM) : area under the dose-response curve at minimum 400?
Result: yes

Request: Please indicate if the recorded area under the dose-response curve for CCOC1OC(=O)C[C@@H]1NC(=O)[C@@H]1CCCN1C(=O)[C@@H](NC(=O)c1ccc(N)c(Cl)c1)C(C)(C)C (some centres not stated) [VX-765] (top concentration 46.0829 µM) meets or exceeds 400.
Result: yes

Request: Identify whether the reported area under the dose-response curve of the following compound is 400 or greater: O=C(O)CCCc1c[nH]c2ccccc12 [3-indolebutyric acid] (top concentration 46.0829 µM)
Result: yes

Request: Does the reported area under the dose-response curve for CN(C)CCN1C(=O)c2cccc3cc(N)cc(c23)C1=O [Amonafide] (top concentration 46.0829 µM) fall at or above the 400 mark?
Result: yes

Request: area under the dose-response curve >= 400 for CN(C)Cc1cccc(N/C(=C2\C(=O)Nc3cc(C(=O)N(C)C)ccc32)c2ccccc2)c1 (top concentration 46.0829 µM) ?
Result: no

Request: Is area under the dose-response curve at least 400? Consider C=CC(=O)Nc1cc(NC(=O)c2ccc(C)c(NC(=O)c3ccno3)c2)cc(C(F)(F)F)c1 (top concentration 46.0829 µM)
Result: yes

Request: Entry CC[C@H]1/C=C\C=C/C[C@@H](C)[C@H](O)[C@@](C)(O)C(=O)[C@@H](C)[C@H](O)[C@@H](C)C(=O)[C@@H](C)[C@H](O)[C@@H](C)/C=C/C(=O)O[C@@H]2[C@H](C)[C@H](CC1)O[C@]1(CC[C@H](C)[C@H](C[C@@H](C)O)O1)[C@H]2C [Oligomycin A] (top concentration 46.0829 µM) : is its area under the dose-response curve no less than 400?
Result: no

Request: Exam item: decide whether the reported area under the dose-response curve for CN[C@@H]1Cc2cccc3[nH]c(=O)n(c23)C1 [Sumanirole maleate] (top concentration 46.0829 µM) is at least 400.
Result: yes

Request: Confirm if area under the dose-response curve reported for the compound C=CCNC1=C2C[C@@H](C)C[C@H](OC)[C@H](O)[C@@H](C)/C=C(\C)[C@H](OC(N)=O)[C@@H](OC)/C=C\C=C(/C)C(=O)NC(=CC1=O)C2=O [Tanespimycin] (top concentration 46.0829 µM) is 400 or above.
Result: no
